- System: MRCKA;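 further: KINOMEscan kinase panel screen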
- cond: concentration: 1 μM,replicates: in singlicate; n = 1
measured metric: %Inh (%)

>>> endpoint_result("CC(=O)Nc1nc2cnc(Nc3cc(NC(=O)c4cccc(CC(C)(C)C#N)c4)ccc3C)nc2s1")
0
>>> endpoint_result("CC(=O)c1c(-c2ccncc2)[nH]c(-c2ccncc2)c1C")
20
>>> endpoint_result("Cn1ccc2ncnc(Oc3ccc(NC(=O)Nc4cccc(C(F)(F)F)c4)c(F)c3)c21")
4
>>> endpoint_result("NC(=O)c1ccc(-c2cc3ncnc(SCC(=O)O)c3s2)cc1")
0
>>> endpoint_result("CCOC(=O)N1CCC(n2cnc(-c3ccc(F)cc3)c2-c2ccnc(N)n2)CC1")
20
>>> endpoint_result("CSc1nccc(-c2c(-c3ccc(F)cc3)ncn2CCCN2CCOCC2)n1.Cl")
0
>>> endpoint_result("Cn1ccc2ncnc(Oc3ccc(NC(=O)Nc4cnn(C(C)(C)C)c4)c(Cl)c3)c21")
0
>>> endpoint_result("COc1cc2c(Nc3ccc(NC(=O)c4ccccc4)cc3)ncnc2cc1OCCCN1CCOCC1")
0
>>> endpoint_result("COC(=O)c1cccc(NC(=O)NC2CCN(c3ccnc(NCc4ccc(F)cc4)n3)CC2)c1")
12
>>> endpoint_result("CC(C(=O)NC1CCN(c2ccnc(Nc3ccc(F)cc3)n2)C1)c1ccc(Cl)cc1 (stereo not drawn)")
0
>>> endpoint_result("O=C(Nc1cccc(Oc2ccc3nccn3n2)c1)Nc1cccc(C(F)(F)F)c1")
0
>>> endpoint_result("COc1cc2nccc(Nc3ccc(Oc4ccccc4)cc3)c2cc1OC.Cl")
0
>>> endpoint_result("Cc1ccc2c(-c3ccnc(Nc4ccc(C(F)(F)F)cc4)n3)cnn2n1")
0
>>> endpoint_result("Cc1nnc(-c2ccc3occ(-c4ccc(S(C)=O)cc4)c3n2)o1 (stereo not drawn)")
0
>>> endpoint_result("O=C(Nc1cccc(C(F)(F)F)c1)c1cccc(Oc2ccc3nccn3n2)c1")
23
>>> endpoint_result("OCCn1cc(-c2cnc3nnn(Cc4ccc5ncccc5c4)c3n2)cn1")
0
>>> endpoint_result("CN1CCN(CCNc2nc3cc(Oc4ccc(NC(=O)Nc5cc(C(F)(F)F)ccc5F)cc4)ccc3[nH]2)CC1.Cl.Cl")
0
>>> endpoint_result("C[C@@H]1CNc2c(sc3ccc4nc(-c5ccc(O)cc5)ccc4c23)C(=O)N1")
0
